- system.name: UniProt P21728
- Sequence (P21728 whole entry, the tested form may be a part): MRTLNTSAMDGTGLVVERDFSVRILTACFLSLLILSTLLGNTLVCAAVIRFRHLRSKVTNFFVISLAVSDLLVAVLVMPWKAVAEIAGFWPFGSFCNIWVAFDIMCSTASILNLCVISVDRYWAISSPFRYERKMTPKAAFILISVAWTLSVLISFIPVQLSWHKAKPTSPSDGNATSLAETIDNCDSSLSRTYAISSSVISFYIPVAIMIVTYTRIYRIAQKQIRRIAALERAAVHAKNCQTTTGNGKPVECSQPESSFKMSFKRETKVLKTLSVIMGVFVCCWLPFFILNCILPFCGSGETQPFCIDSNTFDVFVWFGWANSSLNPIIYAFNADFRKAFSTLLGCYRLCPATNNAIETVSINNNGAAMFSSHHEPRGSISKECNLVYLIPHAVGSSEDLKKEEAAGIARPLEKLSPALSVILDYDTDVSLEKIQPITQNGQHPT
- protocol.notes: Agonist activity at C-terminal RLuc8-fused D1R (unknown origin) transfected in human HEK293T cells co-expressing N-terminal Venus-tagged beta-arrestin2 assessed as increase in beta-arrestin2 recruitment measured after 5 mins in presence of coelenterazine H by BRET assay
- Assay type: cell-based
- recorded.conditions: read-out: EC50
Listing of recorded pEC50 by entry.
Hey, just a heads up that pEC50 is the negative log base 10 of the concentration in molar.

These recorded examples may help you get a feel for the data.
COc1cccc(-c2cc3c(c(OC(C)=O)c2OC(C)=O)-c2cccc4c2[C@@H](C3)N(C)CC4)c1
7.38
CCc1cc2c(c(OC(C)=O)c1OC(C)=O)-c1cccc3c1[C@@H](C2)N(C)CC3
9.42

Now look at this entry.
Query: Please indicate pEC50 recorded for COCOc1ccc2c(c1OCOC)-c1cccc3c1[C@@H](C2)N(C)CC3
Response: 8.07

Source listed as ChEMBL document CHEMBL4342494.
